System: Saccharomyces cerevisiae
Test: transcriptional activation domain activity (GFP:mCherry ratio, weighted mean of sorted bins, harmonized to initial dataset scale) (arbitrary fluorescence ratio units); higher = stronger transcriptional activation
Settings: beta-estradiol 1 µM; induction time 4 h
Lab note: anything with transcriptional activation domain activity at or over 50000 counts as label 1; the rest go in label 0.

Check this sequence for transcriptional activation domain activity at or above 50000: `KKKSSGRKSGSKGVGRLGSGSEETDEDESSRGSGSEAGRSSKDKKGKSRSNVE`
label 0

Check this sequence for transcriptional activation domain activity at or above 50000: `QAAQESDEESEAPNPTAKTLSKRAAEAWKQLSASDKDKYKVLADKEREEHARL`
label 0

Check this sequence for transcriptional activation domain activity at or above 50000: `IRGLLILRYQRGYKDLNHCEPQVIFYDRLCGFLVLGWFLHYFPFFLMSRQLFL`
label 1

Check this sequence for transcriptional activation domain activity at or above 50000: `TSSPSAHSSTNTNVVFVFGSEDKRVKEVGDALKVKLAVKGGGKGVKWSGKFTG`
label 0

Check this sequence for transcriptional activation domain activity at or above 50000: `LRAYPVPQALQIAGNESVSPCLVRCLRLLTVLADLLYMHRGFFARALNDHPKD`
label 0

Check this sequence for transcriptional activation domain activity at or above 50000: `ALKVVVRVKMFGIGPLIYCSCLFVLLFSVVLLLLLAALYLMLQIYAALVVSAV`
label 0

Check this sequence for transcriptional activation domain activity at or above 50000: `VWVASKVEEDEASDYAAPEKQAKPKRQRGRPKKGGEDKSDVTSTAAAQESAAK`
label 0

Check this sequence for transcriptional activation domain activity at or above 50000: `MGKGGYGEQRGGGRGGFRGGRGGGRGGFGGGGFNQGPPSEVVVVGTFVSACEG`
label 1

More entries:
Check this sequence for transcriptional activation domain activity at or above 50000: `LLWFYFLFLFCIFCWWLRYASSLVPNICHIHVIHDLADAFMHIRFVLFISILS`
label 1

Check this sequence for transcriptional activation domain activity at or above 50000: `MDNKSSKSPGNIPKHRACDECRSRKLACSKEPDGCARCKRERIKCHYSPQKPM`
label 0

Check this sequence for transcriptional activation domain activity at or above 50000: `RWINSTIHNLFEVVMLPDLCGFCCFSMRFVVLLDLIGTLSLPVSFVYLVYLIY`
label 1

Check this sequence for transcriptional activation domain activity at or above 50000: `YVVVVLTAMQVGLATETLAHNKAFVTISYGFSIFSIFIPIVFTLLLLLVFFFV`
label 0

Check this sequence for transcriptional activation domain activity at or above 50000: `TLPGGTTGEFGRDRPTTNAFGSSTGAFGAPAANNNPFGAPAQPAGAFGQPSAL`
label 0

Check this sequence for transcriptional activation domain activity at or above 50000: `KRKACLVCDLICTLLLQGLVSNEELRIDYSHRRCDLWRRQRWIGFVTPLSILE`
label 0

Check this sequence for transcriptional activation domain activity at or above 50000: `ERQGRGQREERRREDHSRTRVPQRQGQEQREERRREDQYSRQEQQSQGLGQRK`
label 0
